- Tested on: U-2932
- assay.method.text: growth inhibition by drug alone (1 - RLU/untreated control) (fraction); higher = stronger inhibition
- stated.conditions: 10 nM; time (day): 4; 177Lu-lilotomab satetraxetan 0 ug/ml
Please note: yes (1) applies when growth inhibition by drug alone is 0.009 or greater, and no (0) applies otherwise.

> print(dat)
                                   molecule  qualitative.label
1  COc1cc(Nc2ncc3c(n2)-c2ccc(Cl)cc2C(c2c(F)cccc2OC)=NC3)ccc1C(=O)O             no (0)
2  COc1cc2nccc(Oc3ccc(NC(=O)NC4CC4)c(Cl)c3)c2cc1C(N)=O             no (0)
3  C[C@]12CC[C@@H]3c4ccc(O)cc4CC[C@H]3[C@@H]1CC[C@@H]2O            yes (1)
4  O=C(O)C(Cc1c[nH]c2ccccc12)N1C(=O)c2ccccc2C1=O (stereo unspecified)            yes (1)
5  COc1cc2nccc(Oc3ccc(NC(=O)C4(C(=O)Nc5ccc(F)cc5)CC4)cc3)c2cc1OC [XL-184 free base (Cabozantinib)]            yes (1)

* * *

- Test system: U-2932
- assay.method.text: growth inhibition by drug plus 177Lu-lilotomab satetraxetan (1 - RLU/untreated control) (fraction); higher = stronger inhibition
- stated.conditions: 1000 nM; time (day): 3; 177Lu-lilotomab satetraxetan 1 ug/ml
Please note: Criterion met applies when growth inhibition by drug plus 177Lu-lilotomab satetraxetan is 0.1 or greater, and Criterion not met applies otherwise.

compound	qualitative.label
Oc1ccc(Nc2nc(-c3ccc(Cl)cc3)cs2)cc1	Criterion not met
Cc1cn(-c2cc(NC(=O)c3ccc(C)c(Nc4nccc(-c5cccnc5)n4)c3)cc(C(F)(F)F)c2)cn1	Criterion not met
CC(=O)O[C@H]1C(=O)[C@@]2(C)[C@H]([C@H](OC(=O)c3ccccc3)[C@]3(O)C[C@H](OC(=O)[C@H](O)[C@@H](NC(=O)c4ccccc4)c4ccccc4)C(C)=C1C3(C)C)[C@]1(OC(C)=O)CO[C@@H]1C[C@@H]2O	Criterion met
C#Cc1cccc(Nc2ncnc3cc(OC)c(OCCCCCCC(=O)NO)cc23)c1	Criterion met
CCCCCCCCc1ccc(CCC(N)(CO)CO)cc1	Criterion not met
Cc1cc(Nc2cc(N3CCN(C)CC3)nc(/C=C/c3ccccc3)n2)n[nH]1	Criterion not met
CCC(=O)N1CCN(c2ccc(-n3c(=O)ccc4cnc5ccc(-c6cnc7ccccc7c6)cc5c43)cc2C(F)(F)F)CC1	Criterion met
O=C1c2ccccc2C(=O)c2c(NCCc3ccc(O)cc3)ccc(NCCc3ccc(O)cc3)c21	Criterion not met
O=C(O)c1ccc2c(c1)nc(Nc1cccc(Cl)c1)c1ccncc12 [cx-4945 (Silmitasertib)]	Criterion not met
CCOc1cc2ncc(C#N)c(Nc3ccc(F)c(Cl)c3)c2cc1NC(=O)/C=C/CN(C)C [Pelitinib (EKB-569)]	Criterion met
O=C(O)C(=O)O.[NH-]C1CCCCC1[NH-].[Pt+2] (centres undefined) [Oxaliplatin (Eloxatin)]	Criterion met
CO[C@H]1C[C@@H]2CC[C@@H](C)[C@@](O)(O2)C(=O)C(=O)N2CCCC[C@H]2C(=O)O[C@H]([C@H](C)C[C@@H]2CC[C@@H](O)[C@H](OC)C2)CC(=O)[C@H](C)/C=C(\C)[C@@H](O)[C@@H](OC)C(=O)[C@H](C)C[C@H](C)/C=C/C=C/C=C/1C [Rapamycin (Sirolimus)]	Criterion met
CC[C@H]1OC(=O)[C@H](C)[C@@H](O[C@H]2C[C@@](C)(OC)[C@@H](O)[C@H](C)O2)[C@H](C)[C@@H](O[C@@H]2O[C@H](C)C[C@H](N(C)C)[C@H]2O)[C@](C)(O)C[C@@H](C)CN(C)[C@H](C)[C@@H](O)[C@]1(C)O [Azithromycin (Zithromax)]	Criterion not met
CS(=O)(=O)N1CCc2c(-c3cnc(N)nc3)nc(N3CCOCC3)nc21	Criterion met
COc1cc2/c(=N/c3ccc(Br)cc3F)nc[nH]c2cc1OCC1CCN(C)CC1 [Vandetanib (Zactima)]	Criterion not met
CC1=C(/C=C/C(C)=C/C=C/C(C)=C/C(=O)Nc2ccc(O)cc2)C(C)(C)CCC1 [Fenretinide]	Criterion met
CC1(C)CCC(c2ccc(Cl)cc2)=C(CN2CCN(c3ccc(C(=O)NS(=O)(=O)c4ccc(N[C@H](CCN5CCOCC5)CSc5ccccc5)c(S(=O)(=O)C(F)(F)F)c4)cc3)CC2)C1	Criterion met
Cc1[nH]c(/C=C2\C(=O)Nc3ccc(S(=O)(=O)Cc4c(Cl)cccc4Cl)cc32)c(C)c1C(=O)N1CCC[C@@H]1CN1CCCC1	Criterion not met
CC(C)(C)c1ccc(S(=O)(=O)/C=C/C#N)cc1	Criterion met

* * *

- Tested on: RIVA
- assay.method.text: growth inhibition by drug alone (1 - RLU/untreated control) (fraction); higher = stronger inhibition
- stated.conditions: 100 nM; time (day): 5; 177Lu-lilotomab satetraxetan 0 ug/ml
Please note: satisfied applies when growth inhibition by drug alone is -0.1 or greater, and not satisfied applies otherwise.

smi	tested.system	qualitative.label
c1ccc2c(CCNc3ccc(Nc4ccncc4)cc3)c[nH]c2c1	RIVA	not satisfied
CN(C)c1nc(N(C)C)nc(N(C)C)n1	RIVA	not satisfied
CN1CCN(c2nc(C3=C(c4c[nH]c5ccccc45)C(=O)NC3=O)c3ccccc3n2)CC1	RIVA	satisfied
Cc1cnc(-c2cnc(NCCNc3ccc(C#N)cn3)nc2-c2ccc(Cl)cc2Cl)[nH]1	RIVA	satisfied
CO[C@H]1C[C@@H]2CC[C@@H](C)[C@@](O)(O2)C(=O)C(=O)N2CCCC[C@H]2C(=O)O[C@H]([C@H](C)C[C@@H]2CC[C@@H](OC(=O)C(C)(CO)CO)[C@H](OC)C2)CC(=O)[C@H](C)/C=C(\C)[C@@H](O)[C@@H](OC)C(=O)[C@H](C)C[C@H](C)/C=C/C=C/C=C/1C	RIVA	satisfied
Cc1nc(N)sc1-c1ccnc(Nc2ccc(N3CCOCC3)cc2)n1	RIVA	not satisfied

* * *

- Test system: U-2932
- assay.method.text: growth inhibition by drug plus 177Lu-lilotomab satetraxetan (1 - RLU/untreated control) (fraction); higher = stronger inhibition
- stated.conditions: 1000 nM; time (day): 6; 177Lu-lilotomab satetraxetan 1 ug/ml
Structures can show the parent of a compound that is named as a salt.
Please note: Yes applies when growth inhibition by drug plus 177Lu-lilotomab satetraxetan is 0.2 or greater, and No applies otherwise.

compound	qualitative.label
COC(=O)Nc1ccc(-c2nc(N3CCOCC3)c3cnn(C4CCN(C(=O)OC)CC4)c3n2)cc1	Yes
COc1cc2c(cc1OC)CN(CCc1ccc(NC(=O)c3cccc4c(=O)c5cccc(OC)c5[nH]c34)cc1)CC2 [Elacridar]	No
O=C(O)Cc1cccc(OCCCN(Cc2cccc(C(F)(F)F)c2Cl)CC(c2ccccc2)c2ccccc2)c1	Yes
CC[C@H](Nc1ncnc2[nH]cnc12)c1nc2cccc(F)c2c(=O)n1-c1ccccc1	Yes
CC(C)(C)c1cc(NC(=O)Nc2ccc(-c3cn4c(n3)sc3cc(OCCN5CCOCC5)ccc34)cc2)no1 [Quizartinib (AC220)]	No
O=C(O[C@@H]1Cc2c(O)cc(O)cc2O[C@@H]1c1cc(O)c(O)c(O)c1)c1cc(O)c(O)c(O)c1 [(-)-Epigallocatechin gallate]	No
C[C@@H](Oc1cc(-n2cnc3ccc(CN4CCN(C)CC4)cc32)sc1C(N)=O)c1ccccc1C(F)(F)F	Yes
CNCc1ccc(-c2[nH]c3cc(F)cc4c3c2CCNC4=O)cc1	Yes
CCc1ccc(CCOc2ccc(CC3SC(=O)NC3=O)cc2)nc1 (stereo not drawn) [Pioglitazone (Actos)]	No
CCNC(=O)c1noc(-c2cc(C(C)C)c(O)cc2O)c1-c1ccc(CN2CCOCC2)cc1	Yes
CC(=O)O[C@]1(C(C)=O)CC[C@H]2[C@@H]3C=C(C)C4=CC(=O)CC[C@]4(C)[C@H]3CC[C@@]21C [Megestrol Acetate]	No
COc1cc(Nc2ncc3c(n2)-c2ccc(Cl)cc2C(c2c(F)cccc2OC)=NC3)ccc1C(=O)O [MLN8237 (Alisertib)]	Yes
Nc1ncn([C@H]2C[C@H](O)[C@@H](CO)O2)c(=O)n1 [Decitabine]	Yes
COc1cc(C(=O)NC(=S)Nc2cccc(NC(=O)c3ccccc3)c2)cc(OC)c1OC	No
Cc1c(CCOc2ccc(C(=O)O)cc2)c2cc(Cl)ccc2n1C(c1ccccc1)c1ccccc1	No
COc1cc([C@@H]2c3cc4c(cc3[C@@H](O[C@@H]3O[C@@H]5CO[C@@H](C)O[C@H]5[C@H](O)[C@H]3O)[C@H]3COC(=O)[C@H]23)OCO4)cc(OC)c1O [Etoposide (VP-16)]	Yes
CCOc1ccc(Nc2nc(-c3c(C)nc4ccccn34)cs2)cc1	Yes
CNNCc1ccc(C(=O)NC(C)C)cc1 [Procarbazine hydrochloride (Matulane)]	No
COc1cc2c(N3CCN(C(=O)Nc4ccc(OC(C)C)cc4)CC3)ncnc2cc1OCCCN1CCCCC1 [Tandutinib (MLN518)]	No
Cc1ccc(NC(=O)c2cccc(C(C)(C)C#N)c2)cc1Nc1ccc2ncn(C)c(=O)c2c1	Yes
N#Cc1c(O)c2c(-c3ccc(-c4ccccc4O)cc3)csc2[nH]c1=O	No
O=C1c2ccccc2-c2nc3nonc3nc21	Yes
CC(C)C[C@@H](C(=O)N[C@H](C(=O)OC1CCCC1)c1ccccc1)[C@H](O)C(=O)NO [Tosedostat (CHR2797)]	No
C[C@H](NC(=O)Cc1cc(F)cc(F)c1)C(=O)N[C@H](C(=O)OC(C)(C)C)c1ccccc1	No
CN1CCN(CCOc2cc(OC3CCOCC3)c3c(Nc4c(Cl)ccc5c4OCO5)ncnc3c2)CC1 [Saracatinib (AZD0530)]	No
Nc1nc2[nH]cc(CCc3ccc(C(=O)N[C@@H](CCC(=O)O)C(=O)O)cc3)c2c(=O)[nH]1 [Pemetrexed]	Yes
CNC(=O)c1cc(COc2nnc(Nc3ccc(Cl)cc3)c3ccoc23)ccn1 [Telatinib (BAY 57-9352)]	No
CO[C@H]1/C=C\C=C(/C)C(=O)NC2=CC(=O)C(NCCN(C)C)=C(C[C@@H](C)C[C@H](OC)[C@H](O)[C@@H](C)/C=C(\C)[C@@H]1OC(N)=O)C2=O [17-DMAG HCl (Alvespimycin)]	Yes
